Tested on: Escherichia coli MG1655 (pRecA-lux)
Assay: Genotoxicity, bacterial lux-biosensor
Assay type: cell-based
Settings: without metabolic activation (-S9); 10^−8 M
Description: E. coli MG1655 (pRecA-lux) was used for the evaluation of the genotoxicity of the synthesized compounds. The biosensor with the PrecA promotor fixes the presence of the factors causing damage of DNA in a cell. […] The induction factor (I) was defined as the relation of luminescence intensity of a lux-biosensor suspension containing tested sample (Lc) to the luminescence intensity of a lux-biosensor control suspension (Lk): I = Lc/Lk. […]
Each entry gets label 0 if its Genotoxicity (induction factor, I) stays under 1, and label 1 if its Genotoxicity (induction factor, I) is 1 or above.

[[record]]
compound = "O=C(Nc1ccc(Br)cc1)N1CCCC1c1ccc(Nc2c([N+](=O)[O-])c(Cl)cc3c2no[n+]3[O-])cc1O (centres unmarked)"
assignedcategory = "label 0"

[[record]]
compound = "COc1ccc(NC(=O)N2CCCC2c2ccc(Nc3c([N+](=O)[O-])c(Cl)cc4c3no[n+]4[O-])cc2O)cc1 (centres unmarked)"
assignedcategory = "label 1"

[[record]]
compound = "O=C(Nc1ccc(F)cc1)N1CCCC1c1ccc(Nc2c([N+](=O)[O-])c(Cl)cc3c2no[n+]3[O-])cc1O (centres unmarked)"
assignedcategory = "label 1"

[[record]]
compound = "O=C(Nc1ccccc1)N1CCCC1c1ccc(Nc2c([N+](=O)[O-])c(Cl)cc3c2no[n+]3[O-])cc1O (centres unmarked)"
assignedcategory = "label 1"

[[record]]
compound = "O=[N+]([O-])c1c(Cl)cc2c(no[n+]2[O-])c1Nc1cccc(O)c1"
assignedcategory = "label 1"

